From: ChEMBL document CHEMBL1137031

Test system: Streptococcus pneumoniae
Assay: Minimum inhibitory concentration against Streptococcus pneumoniae OC4421
readout: MIC (µg/mL)

CC[C@H]1OC(=O)C(C)C(=O)[C@H](C)[C@@H](O[C@@H]2O[C@H](C)C[C@H](N(C)C)[C@H]2O)[C@](C)(OC(=O)N/C=C/c2ccc(-c3cccnc3)cc2)C[C@@H](C)C(=O)[C@H](C)[C@H]2NC(=O)O[C@@]21C (some centres undefined)    0.25

I: CC[C@H]1OC(=O)C(C)C(=O)[C@H](C)[C@@H](O[C@@H]2O[C@H](C)C[C@H](N(C)C)[C@H]2O)[C@](C)(OC(=O)Nc2ccccc2)C[C@@H](C)C(=O)[C@H](C)[C@H]2NC(=O)O[C@@]21C (some centres undefined)
II: CC[C@H]1OC(=O)C(C)C(=O)[C@H](C)[C@@H](O[C@@H]2O[C@H](C)C[C@H](N(C)C)[C@H]2O)[C@](C)(OC(=O)N/C=C/c2ccc(-c3ccccc3)cc2)C[C@@H](C)C(=O)[C@H](C)[C@H]2NC(=O)O[C@@]21C (some centres undefined)
III: CC[C@H]1OC(=O)C(C)C(=O)[C@H](C)[C@@H](O[C@@H]2O[C@H](C)C[C@H](N(C)C)[C@H]2O)[C@](C)(OC(=O)NCCCc2ccccc2)C[C@@H](C)C(=O)[C@H](C)[C@H]2NC(=O)O[C@@]21C (some centres undefined)
INPUT: Which order do these items take when sorted by rising MIC? List them. Hello, could you send the labels back in the order asked? Thank you.
OUTPUT: I, III, II
